# ASSAY_OVERVIEW: soluble on expression in E. coli; label from the status in PepcDB or PDB records
PROPERTY: soluble on expression in E. coli

Answered examples (10):
SEQUENCE_TEXT: MGSDKIHHHHHHMTAYNNNAIYFKNIASGSKGNSTFIWDAHDLIVIDFGITMKKFKEAISELTLGGLNKSIFISHEHADHVSGIRSVKKVDGADVYTRPATAEAANIKAYEIDNEVVIGNFEILAFDVPHDAADPVAFTVKWKDLKISVVSDLGTVTENVISNIRDSDILAFESNHDVSMLKTGRYPASLKRRILSQHGHLSNEQSAEAISKAINESTEIVLTHLSQENNKPEIALNEVKSYLKNRDIKYKDVECADQYVGSSLKSLKT
soluble on expression in E. coli: not soluble
//
SEQUENCE_TEXT: MIVREGSAEILVPEVYHGPGKRGTGFYNADQKINRDITIEFIKKMGIRNVLDGFGGTGIRGIRISKETDSAVTISEVSPDSYRLIRDNVERNGSQASVINDSFECVLQHGAYEYVDVDPYGSPVPYLDAALMGVKRNGFLGVTATDQSALTGSVPHKTRIRYDALIKNDTFRHEMGIRLLIGYMAKRAASLGRFIDPLISIWHGHYYRVFVRVRKGFEGAGRMMQNLGYVNKHNLLSGIYQDMDEGPVWKGNLQDNAVAEAVLASAGHKAFNPEENRLLFCDLTDIARARHTSLPDIESVIDALSSSGHAASRTMFSPTGIKTDASCDLVESLMMDTLHRRSPA
soluble on expression in E. coli: not soluble
//
SEQUENCE_TEXT: MAHHHHHHMEDEKVGTANNDEKVTMSMPEEYMPKNISEILIGAVEEDRTYALKGDEPCDSYIKLGEIVHGTNEKTTQFTFPKNKVLCVQLEAINGNGYLWALLGVHKEKPQINPEEFPRKKITKSFFTNEISVTQPKAIQKNTSNNGGDISPNSSGYGKPRGSEHLGGFVGGASTLQSMVKAHKAGTFYIVYSYYRPFDPTASANTKILQLTVS
soluble on expression in E. coli: soluble
//
SEQUENCE_TEXT: MSLRYFVFATFKVHKDATNSYFSNGDVVVVNRNRTPKYKDFIVYKVGKIFYISRVIGEPNQKVRVMDDILYLNDVFKDEPYIEKMKNAYSEKKDGQMPFTSDFSVETLTRNKESRVPKGSYLVLNDNRQNKNDSRKFGLIKEKDIRGVITFKVYPLSEFGFTASEGHHHHHH
soluble on expression in E. coli: soluble
//
SEQUENCE_TEXT: DLVPQIIWTGSSDGFIDYYNKRWYEYTGFDGKAFGDKSWVPVMHPDDVQEVLDCWYGSVKKGTPYQIELRMKSAETGEYRWFLSKALPIKDKTGVITKWFGTCTDI
soluble on expression in E. coli: not soluble
//
SEQUENCE_TEXT: MGSDKIHHHHHHMPDTRITEDFLGFGLGLRTDHFEYILQHQPDIDWFEVLSENYLVAGGKPRYYLEAIAEQYPVVMHGVSMSIGSSDPLDMDYLKALKKLSNDIQPKWISDHICWTSIHGVNSHDLLPLPYTEETVNHVAQRVRQVQDVLGRRILLENVSSYLSYQDSTMDEWDFLSQVAEAADCLVLLDINNIYVSARNHHFNPLDYLKKIDPRRVQQFHLAGHSDFGDYVIDTHDHDVPPSVWTLYQAALERFGAVSTMIERDANIPEFPALYNELLEAKHIAQLTLPDDPALARSQFGSRSLDDLSKFINTNNASSQKVRA
soluble on expression in E. coli: not soluble
//
SEQUENCE_TEXT: MVCSGAPVALIPTSSGAIMLDYPSMRAVALVARTGSFEKAAQVLCVTPSAVSQRIKQLEERLGVVLIVRGNPCVATEKGEWLCRHMDHVGMLESELFRQLPALTEAGDAQERVTLNIATNADSLGTWFLDAVSKFTGGSDYLVNIAVDDQDHTVEWLRGGRVLAAVTAHDKPVQGCRVTPLGVLRYHATASPDFMARHFADGVTPAALARAPGLTFNQKDRLQASWIRTALGEDVSYPTHWLPSTDGFVKASLAGMGWGLNPVQLVAEHLAAGRLVELMPGTPLDIPLYWQVNRLAAERLAGLTANMVGTARVVLMPVG
soluble on expression in E. coli: soluble
//
SEQUENCE_TEXT: MSLKTALDIIEHAEEHLIEKIAENMHTFGMPSTVGRVLGIIYMNRKPMTLSELSEATGMSKTRMSQVVREMIDANIAEKVFEKGVRKDLYDVEQDYYQTFISLFAANWTKVVSKNKVLYKKLNRELSDLLQRDGLTPEAEEKVNQLLNELKEWLHYYDWLSRLIEFFESEEVFRYVPKTKECSSLKEGGSHHHHHH
soluble on expression in E. coli: soluble
//
SEQUENCE_TEXT: MIGIVAAFEKVKIPEMGKSFGTGWLPPLPSLKDYTEESAQIPEMAEKLGIPTSRKETKTLELPVSIDFRNWCSPIEDQMDLGSCTAHAGVGVVEYFERRAFGKHIDGSRFFVYKTTRNLMGVKGDTGAWLRNTMGALALCGVPPEKYFPYTSRKTPGPDGEPTFDDEPSSFVYSLADNFEALNYFCHDPQGMNLPPEDVILSVKKYLAAGIPSMFGFYGFPSFKDTDVKGGIPFPGPDERSIWGHAVVAVGYDDNMKIRNTLSNKETTGAFLIRNSWGTAWGDKGYGWLPYEYALNKLEHHHHHH
soluble on expression in E. coli: not soluble
//
SEQUENCE_TEXT: MKATPAQVPMKERIKEVATDMLIAHGSSGFRFQQIAQALDCTRGNIHYHYRHKHELVEDVTIEYCQRTIGHFDQIWLSDSTLSQKIQLSMQFNEMRYLKRNPQGDTSHPWSLIARMRLESALITPAAREALARYSHELQRSVVAGVRRAVEKGELRPDTPVEMVALPIIEMANSADPITRDAGRFDRLRQMYQAVDRLIHDAYGMAGHRPAP
soluble on expression in E. coli: not soluble

Alright, here's another sequence for you.
Value lookup for soluble on expression in E. coli; key = PHSHPALTPEQKKELSDIAHRIVAPGKGILAADESTGSIAKRLQSIGTENTEENRRFYRQLLLTADDRVNPCIGGVILFHETLYQKADDGRPFPQVIKSKGGVVGIMVDKGVVPLAGTNGETTTQGLDGLSERCAQYKKDGADFAKWRCVLKIGEHTPSALAIMENANVLARYASICQQNGIVPIVEPEILPDGDHDLKRCQYVTEKVLAAVYKALSDHHIYLEGTLLKPNMVTPGHACTQKYSHEEIAMATVTALRRTVPPAVTGVTFLSGGQSEEEASINLNAINKCPLLKPWALTFSYGRALQASALKAWGGKKENLKAAQEEYVKRALANSLACQGKYTSSGQAGAAASESLFISNHAY
soluble

meta.source: the DeepSol protein solubility set
